The origin of these recorded values is PubChem BioAssay AID1217.

inhibition: recorded values
# System: diaphorase (Clostridium kluyveri)
# Protocol Details: compounds blocking diaphorase resazurin reduction – biochemical, uHTS, resorufin fluorescence, counter-screen for diaphorase-coupled primary assays, primary screen (AID 1217);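 further: plate controls were DMSO with full reaction for no effect and wells lacking NADH for full effect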
# Particulars: diaphorase resazurin-to-resorufin fluorescence, NADH, 16 min; at 20 µM; stronger effect = higher value; bacterial (C. kluyveri) enzyme, not human
Out of some 190,000 compounds screened, about 1,300 (0.68%) were called active. Shown is part of a subset that was picked to be rich in actives.
Quick note: give the figure in %, leave out the unit.

For orientation, consider the following solved cases.
Molecule	inhibition (%)
COc1cccc(-n2cc(C(=O)O)c3ccccc3c2=O)c1	6.7
N#C/C(=C\C1=C(N2CCOCC2)C(=C\c2ccccc2)/CC1)C(=O)Nc1ccccc1F	28.4
c1ccc(-c2nnc3n2NC(c2ccc4c(c2)OCO4)S3)cc1 (stereo not given)	50
O=C(N/N=C/c1ccc2c(c1)OCO2)C(=O)N1CCCC1	-1.9
COc1ccc(OC)c2[nH]c(=O)c(CCNC(=O)C(C)(C)C)cc12	2.9

Exercise: GET /values?readout=inhibition&item= COc1ccc(/C=C(\NC(=O)c2ccc(OC)c(OC)c2)C(=O)NCCc2c[nH]c3ccccc23)cc1
Key: 13.6

Exercise: GET /values?readout=inhibition&item= O=C(COC(=O)/C=C/c1ccc(S(=O)(=O)N2CCCCCC2)cc1)NCc1ccccc1Cl
Key: 7.9
